Target or system: H1047R PIK3CA enzyme (Homo sapiens, UniProt P42336, H1047R)
Sequence (P42336 whole entry H1047R): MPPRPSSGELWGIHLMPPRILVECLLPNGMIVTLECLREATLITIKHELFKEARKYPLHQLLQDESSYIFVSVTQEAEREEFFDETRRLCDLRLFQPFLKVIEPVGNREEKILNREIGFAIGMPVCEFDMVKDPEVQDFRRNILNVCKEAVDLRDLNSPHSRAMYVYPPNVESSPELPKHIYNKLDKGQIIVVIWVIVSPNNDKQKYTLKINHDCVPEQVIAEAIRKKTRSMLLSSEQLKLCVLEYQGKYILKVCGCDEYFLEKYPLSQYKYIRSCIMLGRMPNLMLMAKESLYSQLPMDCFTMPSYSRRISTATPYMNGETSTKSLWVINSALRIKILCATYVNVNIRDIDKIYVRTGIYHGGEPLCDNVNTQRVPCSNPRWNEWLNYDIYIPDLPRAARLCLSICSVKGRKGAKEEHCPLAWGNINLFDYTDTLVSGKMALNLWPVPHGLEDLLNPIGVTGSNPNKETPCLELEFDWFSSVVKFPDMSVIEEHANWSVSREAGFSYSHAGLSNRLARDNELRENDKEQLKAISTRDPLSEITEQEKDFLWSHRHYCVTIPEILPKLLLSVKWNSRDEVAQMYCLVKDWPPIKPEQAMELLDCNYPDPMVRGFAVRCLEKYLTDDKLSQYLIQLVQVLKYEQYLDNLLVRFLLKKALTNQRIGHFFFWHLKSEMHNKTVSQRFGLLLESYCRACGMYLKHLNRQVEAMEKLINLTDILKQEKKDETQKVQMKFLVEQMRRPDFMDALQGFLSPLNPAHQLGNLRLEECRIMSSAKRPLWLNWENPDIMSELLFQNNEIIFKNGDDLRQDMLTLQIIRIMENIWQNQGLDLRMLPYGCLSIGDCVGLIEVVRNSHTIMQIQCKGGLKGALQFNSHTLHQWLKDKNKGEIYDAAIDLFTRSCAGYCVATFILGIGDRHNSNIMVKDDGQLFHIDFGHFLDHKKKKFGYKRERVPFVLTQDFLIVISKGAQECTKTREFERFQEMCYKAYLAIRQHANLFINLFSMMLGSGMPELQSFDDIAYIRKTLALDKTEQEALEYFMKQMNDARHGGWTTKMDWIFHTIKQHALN
Sequence (P27986 whole entry partner): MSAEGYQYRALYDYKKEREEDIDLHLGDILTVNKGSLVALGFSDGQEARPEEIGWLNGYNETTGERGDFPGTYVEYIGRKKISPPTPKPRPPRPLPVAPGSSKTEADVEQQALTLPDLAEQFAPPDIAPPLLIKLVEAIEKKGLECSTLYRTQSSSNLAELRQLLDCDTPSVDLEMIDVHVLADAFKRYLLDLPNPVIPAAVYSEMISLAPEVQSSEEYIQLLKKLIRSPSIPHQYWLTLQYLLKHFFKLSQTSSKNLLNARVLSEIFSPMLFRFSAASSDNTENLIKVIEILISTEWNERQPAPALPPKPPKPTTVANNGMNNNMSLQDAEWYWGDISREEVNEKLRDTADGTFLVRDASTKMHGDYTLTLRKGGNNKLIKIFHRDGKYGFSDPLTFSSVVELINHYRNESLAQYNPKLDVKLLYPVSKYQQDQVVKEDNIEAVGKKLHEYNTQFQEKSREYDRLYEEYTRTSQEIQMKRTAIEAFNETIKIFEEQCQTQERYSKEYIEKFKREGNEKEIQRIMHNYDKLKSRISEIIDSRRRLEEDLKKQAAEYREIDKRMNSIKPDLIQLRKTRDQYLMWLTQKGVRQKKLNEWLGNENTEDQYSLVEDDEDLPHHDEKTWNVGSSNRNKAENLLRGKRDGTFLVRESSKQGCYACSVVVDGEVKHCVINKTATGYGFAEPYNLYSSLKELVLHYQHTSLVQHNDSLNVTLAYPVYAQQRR
Procedure summary: ADP-Glo Biochemical PIK3CA Kinase Assay
pIC50: −log10 of the molar value.
Property: pIC50

Measured on H1047R PIK3CA enzyme (Homo sapiens, UniProt P42336, H1047R), O=C1NC(c2cc(F)ccc2Cl)c2c(NC(=O)N3CCCC4CCCC43)cc(Br)cc21 (stereo not shown) has a documented pIC50 of 6.30 to 7.00

Measured on H1047R PIK3CA enzyme (Homo sapiens, UniProt P42336, H1047R), CCC[C@@]1(O)CN(C(=O)Nc2cccc3c2[C@@H](c2cc(F)ccc2Cl)NC3=O)c2ccc(F)cc21 (single isomer, unassigned) has a documented pIC50 of 6.00 to 6.30

Measured on H1047R PIK3CA enzyme (Homo sapiens, UniProt P42336, H1047R), Cc1ccccc1C1NC(=O)c2c(P(C)(C)=O)ccc(NC(=O)c3cc(F)cc(C(F)(F)F)c3)c21 (stereo not shown) has a documented pIC50 of 5.00 to 6.00

Measured on H1047R PIK3CA enzyme (Homo sapiens, UniProt P42336, H1047R), O=C(Nc1cc(Cn2cccn2)cc2c1[C@H](c1cc(F)ccc1Cl)NC2=O)c1cc(F)cc(C(F)(F)F)c1 (stereo in doubt) has a documented pIC50 of ≥ 7.00
